Below, each entry is listed alongside its reported Inhibition rate constant.
- Study system: Acetylcholinesterase (Homo sapiens, UniProt P22303)
- Sequence (P22303 whole entry): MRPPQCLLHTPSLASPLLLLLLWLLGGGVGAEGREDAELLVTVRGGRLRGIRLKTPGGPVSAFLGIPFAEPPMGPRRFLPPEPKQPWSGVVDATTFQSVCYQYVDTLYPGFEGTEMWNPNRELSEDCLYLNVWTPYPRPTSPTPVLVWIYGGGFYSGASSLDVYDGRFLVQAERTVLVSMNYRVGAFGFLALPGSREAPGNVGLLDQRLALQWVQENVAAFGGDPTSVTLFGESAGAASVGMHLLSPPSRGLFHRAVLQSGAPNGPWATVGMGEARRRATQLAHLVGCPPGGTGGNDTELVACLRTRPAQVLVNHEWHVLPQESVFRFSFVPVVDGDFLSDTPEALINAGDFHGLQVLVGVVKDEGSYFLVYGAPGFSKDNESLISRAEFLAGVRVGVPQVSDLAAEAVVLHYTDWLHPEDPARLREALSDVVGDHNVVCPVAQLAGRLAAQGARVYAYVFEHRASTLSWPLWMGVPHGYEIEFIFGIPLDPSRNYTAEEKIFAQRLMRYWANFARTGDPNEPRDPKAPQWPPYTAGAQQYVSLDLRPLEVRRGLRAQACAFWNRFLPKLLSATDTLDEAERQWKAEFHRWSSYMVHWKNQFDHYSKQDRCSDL
- Method description: Inhibition of human AChE using acetylthiocholine as substrate assessed as inhibition rate constant by Ellman's method
Numbers only here, please. The scale is ×10³ /M/min.

Illustrative cases are given below, each with its answer.
1. CC(C)NCC(O)c1ccc(OC(=O)N(C)C)c(OC(=O)N(C)C)c1.Cl (racemic)	2.5
2. CC(C)NC[C@H](O)c1ccc(OC(=O)N(C)C)c(OC(=O)N(C)C)c1.Cl	2.7
3. CC(C)NC[C@H](O)c1cc(OC(=O)N(C)C)cc(OC(=O)N(C)C)c1.Cl	4.7

Inquiry: Provide Acetylcholinesterase (Homo sapiens, UniProt P22303) Inhibition rate constant reading for CC(C)NCC(O)c1cc(OC(=O)N(C)C)cc(OC(=O)N(C)C)c1.Cl (racemic) .
Reply text: 2.3

----------
# key: entry, value: bimolecular inhibition rate constant (ki)
- Study system: Cholinesterase (Homo sapiens, UniProt P06276, D98G)
- Sequence (P06276 29-602 D98G limits assumed): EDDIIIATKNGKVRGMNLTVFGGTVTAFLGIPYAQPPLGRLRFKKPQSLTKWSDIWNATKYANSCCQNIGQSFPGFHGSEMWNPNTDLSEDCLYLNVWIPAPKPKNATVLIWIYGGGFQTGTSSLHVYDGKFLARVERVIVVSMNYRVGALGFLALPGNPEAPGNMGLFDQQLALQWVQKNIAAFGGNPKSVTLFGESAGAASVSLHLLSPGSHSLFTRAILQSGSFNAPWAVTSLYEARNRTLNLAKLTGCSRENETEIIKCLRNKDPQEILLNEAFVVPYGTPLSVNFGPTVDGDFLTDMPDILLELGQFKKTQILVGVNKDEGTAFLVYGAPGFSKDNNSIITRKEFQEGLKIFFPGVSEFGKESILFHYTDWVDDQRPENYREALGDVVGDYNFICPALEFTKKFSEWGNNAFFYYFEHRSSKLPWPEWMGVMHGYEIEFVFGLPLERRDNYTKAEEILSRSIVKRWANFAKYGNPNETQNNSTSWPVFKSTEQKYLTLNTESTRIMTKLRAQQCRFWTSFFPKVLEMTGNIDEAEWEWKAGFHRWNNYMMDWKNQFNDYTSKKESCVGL
- Method description: Inhibition of human BChE D70G mutant atypical homozygous variant using propionylthiocholine as substrate assessed as inhibition rate constant incubated up to 30 mins prior to substrate addition by Ellman's method
Numbers only here, please. The scale is ×10³ /M/min.

1. CC(C)NC[C@H](O)c1ccc(OC(=O)N(C)C)c(OC(=O)N(C)C)c1.Cl	31

Inquiry: For CC(C)NCC(O)c1cc(OC(=O)N(C)C)cc(OC(=O)N(C)C)c1.Cl (racemic) , write its bimolecular inhibition rate constant (ki).
Reply text: 40

Inquiry: Specify measured bimolecular inhibition rate constant (ki) for `CC(C)NC[C@H](O)c1cc(OC(=O)N(C)C)cc(OC(=O)N(C)C)c1.Cl` .
Reply text: 76

Value source: ChEMBL document CHEMBL2163243
